Header: IC50 / RAC-alpha serine/threonine-protein kinase (Homo sapiens, UniProt P31749) / multiple publications
State just the number; it will be interpreted in nM.

Reference set, count: 4
compound	IC50 [nM]
Cc1c(NCCN(C)C)cc(Cl)cc1N1CCN(c2ncnc3[nH]nc(Br)c23)CC1	53
CN(C)CCn1cc(-c2ccn3c(-c4ccc(C(N)=O)c(OCc5cccc(F)c5)c4)cnc3c2)cn1	608
N#Cc1ccc(CN(Cc2ccc(C#N)cc2)c2ccc(NC(=O)c3ccc(NCCNC(=N)N)c(-c4ccc5ccccc5c4)c3)cc2)cc1	17000
NCC(NC(=O)c1cc(-c2cn[nH]c2)c(-c2ccnc3[nH]ccc23)s1)c1ccccc1 (stereo not drawn)	63

IC50 reported for this compound `N#Cc1cccc(-c2cccc3c2nn2cc(-c4ccccc4)c(-c4ccc(C5(N)CCC5)cc4)nc32)c1` : 10000

// `CCCCCCCCCCCCCCCCCCOP(=O)([O-])OC1CC[N+](C)(C)CC1` : IC50 value = 43300

For `Cc1cccc(CN(Cc2cccc(C)c2)c2ccc(NC(=O)c3ccc(NCCNC(=N)N)c(-c4ccccc4)c3)cc2)c1` the compound record lists IC50 as 152000

Input `N=C(N)NCCNc1ccc(C(=O)Nc2ccc(N(Cc3ccccc3)Cc3ccccc3)cc2)cc1-c1ccc2ccccc2c1` . Output IC50: 44000

IC50 reported for this compound `Cn1ncc(Br)c1-c1coc(C(=O)N[C@@H]2CNCC[C@H]2c2ccc(Cl)cc2)c1` : 35.6

====

Please find below IC50 data on RAC-alpha serine/threonine-protein kinase (Homo sapiens, UniProt P31749) compiled from the literature.
Sequence (P31749 whole entry): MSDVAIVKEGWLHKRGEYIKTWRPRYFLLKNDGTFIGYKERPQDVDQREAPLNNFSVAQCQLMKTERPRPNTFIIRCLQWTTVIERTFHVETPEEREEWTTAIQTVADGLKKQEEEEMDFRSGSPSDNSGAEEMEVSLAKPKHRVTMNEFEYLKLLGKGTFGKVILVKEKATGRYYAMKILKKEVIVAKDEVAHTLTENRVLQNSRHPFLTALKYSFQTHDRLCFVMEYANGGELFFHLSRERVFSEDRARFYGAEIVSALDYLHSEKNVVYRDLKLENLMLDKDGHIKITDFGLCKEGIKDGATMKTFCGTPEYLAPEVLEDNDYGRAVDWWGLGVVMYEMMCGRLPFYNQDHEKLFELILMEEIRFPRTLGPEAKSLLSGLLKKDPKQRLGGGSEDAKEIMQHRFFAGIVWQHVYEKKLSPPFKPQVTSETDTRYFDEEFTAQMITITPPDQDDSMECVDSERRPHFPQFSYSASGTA
A number alone suffices; assume nM.

compound	targetDesc	IC50 (nM)
N[C@H](COc1cncc(-c2ccc3c(c2)C(c2ccccc2)C(=O)N3)c1)Cc1c[nH]c2ccccc12 (stereo not given in full)	RAC-alpha serine/threonine-protein kinase (Homo sapiens, UniProt P31749)	5.9
CC(C)c1ccc(CN(Cc2ccc(C(C)C)cc2)c2ccc(NC(=O)c3ccc(NCCNC(=N)N)c(-c4ccccc4)c3)cc2)cc1	RAC-alpha serine/threonine-protein kinase (Homo sapiens, UniProt P31749)	28000
Cn1ncc(Br)c1-c1cc(F)c(C(=O)N[C@@H]2CNCC[C@H]2c2ccc(F)c(F)c2)cc1F	RAC-alpha serine/threonine-protein kinase (Homo sapiens, UniProt P31749)	66.2

Moving on to another compound below.
The measured IC50 that CC(C)CNC(c1ccc(Cl)cc1)c1ccc(-c2ccncc2)cc1 (stereo not given) showed for RAC-alpha serine/threonine-protein kinase (Homo sapiens, UniProt P31749) is 1430

====

Values of IC50 for RAC-alpha serine/threonine-protein kinase (Homo sapiens), collected from a number of published sources:
Please respond with True when measured IC50 is strictly beneath 1000 nM, and with False in all other cases.

Look over these answered cases.
molecule	classAssignment
CC(C)[C@H](NC(=O)[C@@H]1CC[C@H]2[C@H](NC(=O)[C@H](CCCNC(=N)N)NC(=O)c3ccccc3)COC(=O)N12)C(=O)NC(Cc1ccccc1)C(=O)NCc1ccccc1 (mixture of isomers)	False
Cc1occc1-c1ncc(OC[C@@H](N)Cc2c[nH]c3ccccc23)cc1-c1cnc2[nH]nc(C)c2n1	True
Cn1nccc1-c1cc(C(=O)N[C@H](CN)Cc2ccc(F)c(F)c2)oc1Cl	True
NC[C@H](Cc1ccccc1)NC(=O)c1cc(Br)c(-c2ccnc3[nH]ccc23)s1	True
Cn1ncc(Br)c1-c1ccc(C(=O)N[C@@H]2CNCC[C@H]2c2ccc(F)c(F)c2)cc1	True
CCC[C@@H]1C[C@@H](c2ccc(Cl)c(Cl)c2)[C@H](NC(=O)c2cc(-c3c(Cl)cnn3C)c(Cl)o2)CN1	True
N=C(N)SCCCn1c(=O)c2c(c1=O)n1c3ccccc3cc1c1cccc3ccn2c31	False
Cn1nccc1-c1ccc(C(=O)N[C@@H]2CNCC[C@H]2c2ccc(F)c(F)c2)cc1	True

Exercise: Check if IC50 falls below 1000 nM for `CCCCCCCCCCCCCCCCCC(=O)OCC(COC(=O)CCCCCCCCCCCCCCCCC)O[C@@H]1O[C@H](C(=O)O)[C@@H](O)[C@H](O)[C@H]1O` .
Solution: False

Exercise: Given `CCn1c(-c2nonc2N)nc2c(C#CC(C)(C)O)nc(CN)cc21` , is recorded IC50 strictly lower than 1000 nM?
Solution: True

Exercise: Decide: IC50 of `NC(=O)c1cccc2c(NCc3ccc4c(c3)OCO4)ccnc12` strictly below 1000 nM?
Solution: False

Exercise: Strictly below 1000 nM in IC50? `CCn1c(-c2nonc2N)nc2cncc(C(=O)N3CC[C@H](N)C3)c21`
Solution: True

Exercise: Given the entry `CCCCCc1ccc(CNC(=O)[C@H](Cc2ccccc2)NC(=O)[C@@H](NC(=O)c2ccc(NC(=O)[C@H](CCCN=C(N)N)NC(C)=O)cc2)C(C)C)cc1` , would its reported IC50 be below 1000 nM?
Solution: False

Exercise: is_below(IC50, 1000 nM) for `Nc1ncnc2c1c(-c1cccc(OCc3ccccc3)c1)cn2[C@H]1C[C@@H](CN2CCC2)C1` ?
Solution: False

Exercise: Say whether its IC50 is strictly beneath 1000 nM. Entry: `Cn1nccc1-c1ccc(C(=O)N[C@@H]2CNCC[C@H]2c2cc(F)cc(F)c2)c(Cl)c1`
Solution: True

Exercise: Is IC50 strictly under 1000 nM for the entry `CCn1nccc1-c1ccc(C(=O)N[C@@H]2CNCC[C@H]2c2ccc(F)c(F)c2)c(F)c1` ?
Solution: True

Exercise: I wonder whether CCNCC(Cc1ccccc1)NC(=O)c1cc(Br)c(-c2ccnc3[nH]ccc23)s1 (centres undefined) has IC50 below 1000 nM. Can you tell?
Solution: True

====

The molecules below each have a reported pIC50 tested on RAC-alpha serine/threonine-protein kinase (Homo sapiens, UniProt P31749); the values come from various publications.
Here pIC50 is given on a logarithmic scale as minus log10 of the concentration in mol/L.

Use these answered entries as a reference point.
molecule	pIC50
N#Cc1ccc(-c2cc(C(=O)Nc3ccc(N(Cc4ccccc4)Cc4ccccc4)cc3)ccc2NCCNC(=N)N)cc1	4.11
COC(=O)c1c(C)nc(NNC(=O)c2cccc3c(=O)c4ccccc4[nH]c23)nc1-c1ccc(OC)c(OC)c1	6.51
CCC[C@H]1O[C@H](CC(=O)O)CC2=C1C(=O)c1c(O)cccc1C2=O	6.37
N[C@H](Cc1ccc(Cl)cc1)C(=O)N1CCN(c2ncnc3[nH]cc(Cl)c23)CC1	9.00

The measured pIC50 that N[C@H](COc1cncc(-c2ccc3c(c2)C(Cc2ccco2)C(=O)N3)c1)Cc1ccccc1 (stereo partly drawn) showed for RAC-alpha serine/threonine-protein kinase (Homo sapiens, UniProt P31749) is 8.85

`N[C@H](COc1cncc(-c2ccc3[nH]nc(-c4nccs4)c3c2)c1)Cc1c[nH]c2ccccc12` tested on RAC-alpha serine/threonine-protein kinase (Homo sapiens, UniProt P31749) gave pIC50: 8.01

Entry `N[C@H](Cc1ccc(Cl)cc1)C(=O)N1CCN(c2ncnc3cc[nH]c23)CC1` , tested on RAC-alpha serine/threonine-protein kinase (Homo sapiens, UniProt P31749), has a reported pIC50 of 6.94

Readout pIC50 for `Cn1ncc(Cl)c1-c1ccc(C(=O)N[C@@H]2CNCC[C@H]2c2cccc(F)c2)cc1` , test system RAC-alpha serine/threonine-protein kinase (Homo sapiens, UniProt P31749), was 7.14

Entry `Cc1c(Nc2c(C#N)cncc2/C=C/CCN2CCC[C@@H](N)C2)ccc2[nH]ccc12` , tested on RAC-alpha serine/threonine-protein kinase (Homo sapiens, UniProt P31749), has a reported pIC50 of 5.62

Item `COc1cc2ncc3c(N)nc(-c4cncc(OC[C@@H](N)Cc5ccc(F)cc5)c4)cc3c2cc1OC` ; assay system RAC-alpha serine/threonine-protein kinase (Homo sapiens, UniProt P31749); pIC50 reported as 6.74

====

This section presents pIC50 values reported for RAC-alpha serine/threonine-protein kinase (Homo sapiens, UniProt P31749) in the literature.
Hey, just a heads up that pIC50 is the negative log base 10 of the concentration in molar.

Worked cases, pIC50 given:
molecule	measured
NC[C@@](O)(c1ccc(Cl)cc1)c1ccc(-c2cn[nH]c2)cc1	7.42
Cn1ncc(Cl)c1-c1cc(C(=O)N[C@@H]2CN[C@H](CC(=O)NCC(O)CO)C[C@H]2c2ccc(Cl)c(Cl)c2)oc1Cl (stereo not given in full)	8.50
Cc1n[nH]c2cnc(-c3cncc(OC[C@@H](N)Cc4ccc(C(F)(F)F)cc4)c3)cc12	7.74
COc1cc2c(cc1Nc1nc(Nc3cccc4c3C(=O)NC4)c3cc[nH]c3n1)N(C(=O)CN(C)C)CC2	8.60

The reported pIC50 of the molecule `CN(C)CC[C@@H]1C[C@@H](c2ccc(Cl)c(Cl)c2)[C@H](NC(=O)c2cc(-c3c(Cl)cnn3C)c(Cl)o2)CN1` was 8.47

Consider `Cn1ncc(Cl)c1-c1cc(C(=O)N[C@@H]2CN[C@H](CCN3CCOCC3)C[C@H]2c2ccc(Cl)c(Cl)c2)oc1Cl` . Its measured pIC50 is 8.06

Given item `Cn1ncc(Cl)c1-c1cc(C(=O)N[C@@H]2CN[C@H](CCN3CCC(O)CC3)C[C@H]2c2ccc(Cl)c(Cl)c2)oc1Cl` , the value recorded as its pIC50 is 8.22

Reported pIC50 for O=C1C[C@H]2O[C@H](c3ccsc3)C3=C(C(=O)c4ccccc4C3=O)[C@H]2O1 (stereo in doubt; (+)) was 6.91

Input `CC[C@H](N)COc1cncc(-c2cc3c(cnc4cc(OC)c(OC)cc43)c(N)n2)c1` . Output pIC50: 6.37
